The reported numbers originate from the supplement of paper PMC10126150.

System: ATP;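 further: ATP exposure 15 min at 22 °C before imaging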
Assay: switch fluorescence ratio, 500 uM ATP over buffer (Cy3 cluster intensity, sum of 5 cycles each) (fold (ratio)); higher = stronger signal-on switching upon ATP binding; sequences stand for … in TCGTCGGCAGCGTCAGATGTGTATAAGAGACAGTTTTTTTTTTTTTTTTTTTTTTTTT…TC
Details: aptamer strand: ATP DNA aptamer (quencher-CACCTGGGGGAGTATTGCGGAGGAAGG + anchor), 100 nM annealed; ATP concentration: 500 uM
experimental_readout: switch fluorescence ratio
Simply state the number, no unit and no words.

// below: answered sequences
residues | switch fluorescence ratio
GGGTTCGGTG | 1.01
GGGTAGAGTG | 1.01
TTCAATGGGC | 0.998
ATTTATCGGG | 1
GGGCCGTAGG | 0.99

In: Quick one: switch fluorescence ratio of `AAGGAAGGCC` ?
Out: 1.01

In: Same again, this time with `GAAAAAAGAT`
Out: 1.02

In: Next record, please: `TTATGGTTTT`
Out: 1

In: Note, next up: `GAATCAGTGG`
Out: 0.993

In: And the next one, `TTTGTTTTCA` ?
Out: 0.989

In: Try this sequence next: `GTTCTATGGT`
Out: 0.998

---

Tested on: ATP;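 further: ATP exposure 15 min at 22 °C before imaging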
Test: switch fluorescence ratio, 500 uM ATP over buffer (Cy3 cluster intensity, sum of 5 cycles each) (fold (ratio)); higher = stronger signal-on switching upon ATP binding; sequences stand for … in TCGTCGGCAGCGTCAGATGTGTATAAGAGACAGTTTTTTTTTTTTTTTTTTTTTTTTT…TC
Settings: aptamer strand: ATP DNA aptamer (quencher-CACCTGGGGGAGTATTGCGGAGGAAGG + anchor), 100 nM annealed; ATP concentration: 500 uM
experimental_readout: switch fluorescence ratio
Answer with the value's number alone.

Would you please look over these solved cases?
residues | target_system | obs_value
GGCTTGGGCG | ATP | 0.983
GACGGGCTGT | ATP | 0.985
CAAGTAGAGT | ATP | 0.995
TCAGTGTGCC | ATP | 0.995
TTTGGGGTT | ATP | 1.02

In: # query: switch fluorescence ratio | item `GATATGGGAG` | system: ATP;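 further: ATP exposure 15 min at 22 °C before imaging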
Out: 0.988

In: Moving on to `GATGATTTGT`
Out: 1.02

In: Quick one: `CTATTGGTTA`
Out: 1.01

In: Can you handle `TGCTGGTGTA` next?
Out: 1.02

---

Tested on: ATP;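 further: ATP exposure 15 min at 22 °C before imaging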
Assay: switch fluorescence ratio, 500 uM ATP over buffer (Cy3 cluster intensity, sum of 5 cycles each) (fold (ratio)); higher = stronger signal-on switching upon ATP binding; sequences stand for … in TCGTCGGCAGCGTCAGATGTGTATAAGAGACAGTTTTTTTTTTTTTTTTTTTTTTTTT…TC
Conditions: aptamer strand: ATP DNA aptamer (quencher-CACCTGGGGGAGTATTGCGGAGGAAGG + anchor), 100 nM annealed; ATP concentration: 500 uM
In this section we review reported switch fluorescence ratio values for a set of sequences.
No unit in the answer, only the number.

residues | obs_value
AGCTGAACGG | 1.05
TGTGTTTCAA | 1.03
GACGCATATG | 2.03
TCCAGGATAT | 1.03
AATATAGATG | 0.989
AAGCGCTGTG | 1.03

In: Item `TATTGACCGT` has what recorded switch fluorescence ratio?
Out: 1.04

In: Similarly, `TTTTATCTAG` ?
Out: 1.01

In: Then `GCGGGGGTCA` ?
Out: 0.974

In: Also check `TAAGTTTTAT`
Out: 0.984

In: `TTAAGGGGGG` , same question.
Out: 1

In: Thanks! And `TCGGGTTGTG` ?
Out: 0.959

In: Record: `GCCATAGCCT`
Out: 0.995

In: Here is the next sequence: `CGGGCTTCTA`
Out: 1.04

In: Try this sequence next: `TCTGAAATTT`
Out: 0.973

In: Another sequence to look at: `TAGGAGGGCT`
Out: 0.985

In: Input `TGCCATTGGG`
Out: 1.08

In: Also, `TAATATTCGA` please.
Out: 0.995

In: Entry to check: `AACAGGGGTG`
Out: 1.09

In: Cool, now `CGGTTTCTTT`
Out: 0.967

In: Note, next up: `GCGCTTACTA`
Out: 1.31

In: Again, but for `CTCGTAGGGG`
Out: 1.01

In: Ok, now `TAAACTATGG`
Out: 1.02

In: Same read-out for `TTAATAGTC` ?
Out: 1.05

---

Quick reference: switch fluorescence ratio of the listed items.
Tested on: ATP;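 further: ATP exposure 15 min at 22 °C before imaging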
Experiment: switch fluorescence ratio, 500 uM ATP over buffer (Cy3 cluster intensity, sum of 5 cycles each) (fold (ratio)); higher = stronger signal-on switching upon ATP binding; sequences stand for … in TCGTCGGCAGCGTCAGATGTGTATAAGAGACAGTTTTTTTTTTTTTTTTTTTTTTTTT…TC
Settings: aptamer strand: ATP DNA aptamer (quencher-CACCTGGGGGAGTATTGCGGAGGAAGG + anchor), 100 nM annealed; ATP concentration: 500 uM
Please reply with the value in numeric form only.

Use these answered entries as a reference point.
residues | experimental_readout | obs_value
TAGTTATGGG | switch fluorescence ratio | 0.998
GTGTCGC | switch fluorescence ratio | 0.991
GGTAAAAGTC | switch fluorescence ratio | 1.01
GATTGTGAT | switch fluorescence ratio | 1.01
TATGGTTTTG | switch fluorescence ratio | 1.01

In: Return reported switch fluorescence ratio; argument: `CAGGCGGAAA`
Out: 0.98

In: Would you kindly repeat that for `AATAACACGT` ?
Out: 1

In: Another sequence to check: `TTAGTGTCTT`
Out: 0.976

---

System: ATP;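 further: ATP exposure 15 min at 22 °C before imaging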
Assay: switch fluorescence ratio, 500 uM ATP over buffer (Cy3 cluster intensity, sum of 5 cycles each) (fold (ratio)); higher = stronger signal-on switching upon ATP binding; sequences stand for … in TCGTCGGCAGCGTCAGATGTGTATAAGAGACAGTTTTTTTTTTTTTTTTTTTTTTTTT…TC
Conditions: aptamer strand: ATP DNA aptamer (quencher-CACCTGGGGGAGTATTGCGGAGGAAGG + anchor), 100 nM annealed; ATP concentration: 500 uM
In this section we review reported switch fluorescence ratio values for a set of sequences.
Lab note: jot down the number only; don't add units.

residues | obs_value
AGGCATATGG | 0.993

In: Recorded switch fluorescence ratio of `AAGAGGGCAG` , please.
Out: 0.992

In: Proceed to `CATTAGTAGC`
Out: 1.02

In: Param item: `TGATTGAGGA`
Out: 0.981

In: Let us now turn to `TATGGAAAGG`
Out: 0.994

In: For `TGGTAATGTG` then?
Out: 1.01

In: Another sequence to look at: `TGTTTATTTA`
Out: 0.983

In: And then `TTGGGAGAAG` , what is it?
Out: 0.993

In: Ok, now `TATTTTTTTG`
Out: 1.01

In: And for `CAATTGCATC` ?
Out: 1.02

In: // repeat for `TGAGAGAGAA` and report
Out: 1.01

In: Also need `CAAGTTATGT` , thanks.
Out: 1

In: Try `GGGTGAAAGC` next.
Out: 1

In: Same question, `AAGGGGGTCT` this time
Out: 1.02

In: Try the sequence `GGTTAAACAA`
Out: 1.01

In: Now consider `TTTTTTTAAA` .
Out: 0.999

In: Moving on to the next sequence: `GTACGAGTGC`
Out: 0.976

In: Would you mind doing `AGCGCAGTTT` as well?
Out: 0.999

In: Entry `AGACGTGCAG` please
Out: 1.02

---

Quick reference for switch fluorescence ratio among some sequences
System: ATP;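 further: ATP exposure 15 min at 22 °C before imaging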
Assay: switch fluorescence ratio, 500 uM ATP over buffer (Cy3 cluster intensity, sum of 5 cycles each) (fold (ratio)); higher = stronger signal-on switching upon ATP binding; sequences stand for … in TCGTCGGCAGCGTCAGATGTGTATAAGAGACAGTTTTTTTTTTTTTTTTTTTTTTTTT…TC
Settings: aptamer strand: ATP DNA aptamer (quencher-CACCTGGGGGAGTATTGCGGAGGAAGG + anchor), 100 nM annealed; ATP concentration: 500 uM
Simply state the number, no unit and no words.

residues | switch fluorescence ratio
CTTAGCCACT | 1.04
AGCAGGTGGG | 1.05
TGGTTATCTT | 0.969
TTTCAGGTAA | 0.988

In: Consider the sequence shown here: `TGCTTTTGGT` What is its recorded switch fluorescence ratio?
Out: 0.988

In: Then what about the sequence `GTTGGAGGAT` ?
Out: 0.984

In: What do we get for `TTTGACTGGT` ?
Out: 0.984

In: Another sequence to look at: `TCACACGGAG`
Out: 1.04

In: Next up: `GGGATAGTGC`
Out: 1.01

In: Again, but for `AGTATAGGGT`
Out: 0.972

In: Same question for `TTTTCTATTG` please.
Out: 1

In: Thanks! And `GGAAGGATTC` ?
Out: 0.999

In: Then what about the sequence `TTTTATTAGA` ?
Out: 0.974

In: Try this sequence too: `CTTGATATTG`
Out: 0.999

In: Then what about the sequence `GCGGGCCTTG` ?
Out: 0.984
